Origin of measurements: patent US20230200390A1

- System: spring wheat, TRZAS Triso
- EXPERIMENT_NOTES: Seed treatment with safener; post-emergence herbicide, crop damage
- Assay type: in vivo
- RECORDED_CONDITIONS: 21 DAT, HER dose 8 g a.i./ha, mefenpyr-diethyl 0.5 g a.i./kg seed
Please use yes for Reduction [Difference] under 80 and no for everything else, ties included.

C=CC1(C(=O)NC2C=CC(C(=O)OC)C2)CC(c2cc(F)cc(F)c2)=NO1 (centres unmarked) [Example 1.26]
yes

Please state whether Reduction [Difference] is below 80 for C=CC1(C(=O)NC2C=CC(C(=O)O)C2)CC(c2cc(F)cc(F)c2)=NO1 (centres unmarked) [Example 1.58]
no

----------
- Test system: spring barley, HORVS Montoya
- EXPERIMENT_NOTES: Tank-mix; post-emergence: crop damage by herbicide with/without safener mefenpyr-diethyl
- Assay type: in vivo
- RECORDED_CONDITIONS: HER 32 g a.i./ha + mefenpyr-diethyl 100 g a.i./ha, 10 DAT
- Experimental: Seeds of crops (spring wheat, TRZAS; spring barley, HORVS; maize, ZEAMA) were placed in sandy loam soil in peat pots, covered with soil and cultivated in a greenhouse under good growth conditions. Two to three weeks after sowing, the test plants were treated at the 1 to 3-leaf stage. […]
PROPERTY_LABEL: Reduction [Difference]
Numbers only.

COC(=O)C1COCC1NC(=O)C1(C)CC(c2cc(F)cc(F)c2)=NO1 (mixture of isomers) [Example 1.93]
60
COC(=O)C1(C)CC(NC(=O)C2(C(C)(F)F)CC(c3cc(F)cc(F)c3)=NO2)CO1 (mixture of isomers) [Example 1.94]
20
COC(=O)C1CC(NC(=O)C2(OC)CC(c3cc(F)cc(F)c3)=NO2)CO1 (mixture of isomers) [Example 1.72]
40
COC(=O)C1C=CC(NC(=O)C2(C(F)(F)F)CC(c3cccc(F)c3)=NO2)C1 (centres unmarked) [Example 1.18]
70

Please look up its Reduction [Difference]: C=CCOC(=O)C1CC(NC(=O)C2(C=C)CC(c3cc(C)cc(F)c3)=NO2)CO1 (mixture of isomers) [Example 1.85]
60

----------
- Test system: spring wheat, TRZAS Triso
- EXPERIMENT_NOTES: Seed treatment with safener; post-emergence herbicide, crop damage
- Type: in vivo
- RECORDED_CONDITIONS: 21 DAT, HER dose 8 g a.i./ha, mefenpyr-diethyl 0.5 g a.i./kg seed
- Source text: For safener seed treatment trials, sufficient seed amounts of the respective crops (spring wheat (TRZAS); spring barley (HORVS)) were weighed into screw cap glass bottles with a minimum volume trice of the seeds. As a first step, specified safeners formulated as wettable powder (WP) or wettable granules (WG) were weighed out for the required dosages (g a.i./kg seed), corresponding to the seed amounts. […]
PROPERTY_LABEL: Reduction [Difference]

// below: answered molecules
COCCOC(=O)C1C=CC(NC(=O)C2(C)CC(c3cc(Cl)cc(C#N)c3)=NO2)C1 (stereo not drawn)
80
CC(C)OC(=O)C1CC(NC(=O)C2(C(C)(F)F)CC(c3cc(F)cc(F)c3)=NO2)CO1 (mixture of isomers)
65
COC(=O)C1COCC1NC(=O)C1(C)CC(c2cc(F)cc(F)c2)=NO1 (mixture of isomers)
83
COC(=O)C1CC(NC(=O)C2(OC)CC(c3cc(F)cc(F)c3)=NO2)CO1 (mixture of isomers)
20
COC(=O)C1C=CC(NC(=O)C2(C)CC(c3cc(Cl)cc(C#N)c3)=NO2)C1 (mixture of isomers)
20

Consider the additional molecule presented here.
Could you share what Reduction [Difference] was measured for C=CC1(C(=O)NC2CC=C(C(=O)OC)C2)CC(c2cc(F)cc(F)c2)=NO1 (mixture of isomers) , tested on spring wheat, TRZAS Triso?
93
